Target: Full-length human BclXL (residues 1-233) (human, UniProt Q07817-1 1-233)
Sequence (Q07817 whole entry, the tested form may be a part): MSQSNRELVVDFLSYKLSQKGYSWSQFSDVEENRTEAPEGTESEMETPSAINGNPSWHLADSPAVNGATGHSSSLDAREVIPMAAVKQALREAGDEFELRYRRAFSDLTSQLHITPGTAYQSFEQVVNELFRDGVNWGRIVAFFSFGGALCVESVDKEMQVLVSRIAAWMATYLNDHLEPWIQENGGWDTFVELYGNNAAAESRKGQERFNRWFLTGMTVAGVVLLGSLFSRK
Assay: ITC
endpoint name: Kd (µM)
Could you give me the number in µM? Just the number is fine.

**Q:** What value of Kd has been reported for the following binder? DIIRNIARHLAQVGDSMDRS [Bid_BH3 peptide (20-mer spanning residues 81-100, the BH3 domain within human Bid)]
**A:** 1.03
